- Experiment Notes: Inhibition of Aspergillus oryzae beta-galactosidase using 2-chloro-4-nitrophenyl b-dgalactopyranoside substrate
Can you tell me Ki for the items I'm about to list?
Numbers only, in µM.

Dear colleague, could you please provide Ki for the compounds listed below?
1. CCCCCCC/N=C1\N[C@H](CO)[C@H](O)[C@H](O)[C@H]1O
2. OC[C@H]1N/C(=N\CC2CCCCC2)[C@H](O)[C@@H](O)[C@H]1O
3. Cc1ccccc1C/N=C1\N[C@H](CO)[C@H](O)[C@H](O)[C@H]1O

1. 0.0108
2. 0.0113
3. 0.0236

---

- System Tested: Beta-galactosidase (Bos taurus, UniProt Q58D55)
- Sequence (Q58D55 whole entry): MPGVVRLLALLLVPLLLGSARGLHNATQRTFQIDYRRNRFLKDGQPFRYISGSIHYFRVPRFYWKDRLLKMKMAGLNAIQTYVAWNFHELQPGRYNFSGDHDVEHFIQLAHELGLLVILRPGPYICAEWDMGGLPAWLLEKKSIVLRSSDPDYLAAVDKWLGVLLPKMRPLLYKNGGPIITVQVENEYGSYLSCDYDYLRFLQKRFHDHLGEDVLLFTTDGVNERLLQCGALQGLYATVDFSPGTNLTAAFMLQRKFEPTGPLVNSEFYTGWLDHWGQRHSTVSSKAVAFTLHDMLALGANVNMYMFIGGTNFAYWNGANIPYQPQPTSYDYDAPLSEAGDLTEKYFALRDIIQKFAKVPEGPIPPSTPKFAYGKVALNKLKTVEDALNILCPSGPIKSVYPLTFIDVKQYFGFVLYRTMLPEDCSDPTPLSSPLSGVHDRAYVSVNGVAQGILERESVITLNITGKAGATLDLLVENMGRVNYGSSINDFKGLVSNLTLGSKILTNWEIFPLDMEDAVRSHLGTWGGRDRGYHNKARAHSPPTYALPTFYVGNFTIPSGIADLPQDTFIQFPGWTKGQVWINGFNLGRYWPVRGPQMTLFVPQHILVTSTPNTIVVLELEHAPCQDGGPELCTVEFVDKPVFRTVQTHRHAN
Can you tell me Ki for the items I'm about to list?
Answers are plain numbers, in nM.

Example results:
[
  {
    "Chemical Smiles": "OC[C@H]1N/C(=N\\CCCc2ccccc2)[C@H](O)[C@@H](O)[C@H]1O",
    "Result Unit": "nM",
    "Ki": 0.06
  },
  {
    "Chemical Smiles": "Cc1cccc(C/N=C2\\N[C@H](CO)[C@H](O)[C@H](O)[C@H]2O)c1",
    "Result Unit": "nM",
    "Ki": 0.11
  },
  {
    "Chemical Smiles": "OC[C@H]1N/C(=N\\Cc2cccc(F)c2)[C@H](O)[C@@H](O)[C@H]1O",
    "Result Unit": "nM",
    "Ki": 0.13
  },
  {
    "Chemical Smiles": "N=C1N[C@H](CO)[C@H](O)[C@H](O)[C@H]1O",
    "Result Unit": "nM",
    "Ki": 2000
  },
  {
    "Chemical Smiles": "CO[C@H]1C(NCc2ccc(C)cc2)=N[C@H](CO)[C@H](O)[C@@H]1O",
    "Result Unit": "nM",
    "Ki": 1500
  },
  {
    "Chemical Smiles": "Cc1ccccc1C/N=C1\\N[C@H](CO)[C@H](O)[C@H](O)[C@H]1O",
    "Result Unit": "nM",
    "Ki": 0.2
  },
  {
    "Chemical Smiles": "OC[C@H]1N/C(=N\\C2CCCCC2)[C@H](O)[C@@H](O)[C@H]1O",
    "Result Unit": "nM",
    "Ki": 2.34
  }
]

// moving on: another record for Ki
For the molecule O=C1N[C@H](CO)[C@H](O)[C@H](O)[C@H]1O , report Ki.
2700

---

Can you tell me pIC50 for the items I'm about to list?
- Experiment Notes: Inhibition of Aspergillus oryzae beta-galactosidase using 2-chloro-4-nitrophenyl b-dgalactopyranoside substrate relative to control
Answers are plain numbers, as −log10 of the molar value.

Example results:
[
  {
    "Chemical Smiles": "OC[C@H]1N/C(=N\\CCCc2ccccc2)[C@H](O)[C@@H](O)[C@H]1O",
    "pIC50": 7.44
  },
  {
    "Chemical Smiles": "Cc1cccc(C/N=C2\\N[C@H](CO)[C@H](O)[C@H](O)[C@H]2O)c1",
    "pIC50": 6.88
  },
  {
    "Chemical Smiles": "OC[C@H]1N/C(=N\\Cc2ccccc2F)[C@H](O)[C@@H](O)[C@H]1O",
    "pIC50": 6.93
  }
]

// moving on: another record for pIC50
For the compound CO[C@H]1C(NCc2ccc(C)cc2)=N[C@H](CO)[C@H](O)[C@@H]1O , report pIC50.
4.38

---

- System Tested: Beta-galactosidase (Bos taurus)
- Sequence (Q58D55 whole entry): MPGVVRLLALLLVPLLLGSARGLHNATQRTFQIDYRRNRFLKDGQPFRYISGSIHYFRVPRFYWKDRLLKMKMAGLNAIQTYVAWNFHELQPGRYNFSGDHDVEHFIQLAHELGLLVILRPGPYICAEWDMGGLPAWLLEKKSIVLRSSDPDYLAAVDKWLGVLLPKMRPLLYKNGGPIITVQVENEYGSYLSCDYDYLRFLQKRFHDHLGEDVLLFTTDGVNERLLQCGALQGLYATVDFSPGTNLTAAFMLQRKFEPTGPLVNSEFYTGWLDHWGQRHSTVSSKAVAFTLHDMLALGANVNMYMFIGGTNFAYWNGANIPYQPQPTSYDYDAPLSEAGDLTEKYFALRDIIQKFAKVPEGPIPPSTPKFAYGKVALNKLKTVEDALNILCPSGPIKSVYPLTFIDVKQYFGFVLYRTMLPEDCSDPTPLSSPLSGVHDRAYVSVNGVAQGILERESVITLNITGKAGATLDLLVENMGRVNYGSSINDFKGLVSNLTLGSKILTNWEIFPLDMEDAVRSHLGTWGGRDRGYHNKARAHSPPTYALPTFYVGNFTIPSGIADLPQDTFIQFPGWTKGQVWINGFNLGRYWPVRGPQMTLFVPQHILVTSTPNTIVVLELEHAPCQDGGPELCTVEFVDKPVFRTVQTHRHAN
pIC50: −log10 of the molar value.
Can you tell me pIC50 for the items I'm about to list?

[
  {
    "Chemical Smiles": "OC[C@H]1N/C(=N\\C2CC2)[C@H](O)[C@@H](O)[C@H]1O",
    "pIC50": "< 6.00"
  }
]

Dear colleague, could you please provide pIC50 for the compounds listed below?
1. OC[C@H]1N/C(=N\C2CCCCC2)[C@H](O)[C@@H](O)[C@H]1O
2. OC[C@H]1N/C(=N\CC2CC2)[C@H](O)[C@@H](O)[C@H]1O

1. < 6.00
2. < 5.85

---

- System Tested: Beta-galactosidase (Bos taurus)
pKi: −log10 of the molar value.
# if value of pKi reaches 10, tag Fulfilled; if it stays below, tag Not fulfilled

These recorded examples may help you get a feel for the data.
[
  {
    "Chemical Smiles": "CCC/N=C1\\N[C@H](CO)[C@H](O)[C@H](O)[C@H]1O",
    "System Tested": "Beta-galactosidase (Bos taurus)",
    "Class": "Not fulfilled"
  },
  {
    "Chemical Smiles": "CCCCCCCCCCCNC1=N[C@H](CO)[C@H](O)[C@H](O)[C@H]1O",
    "System Tested": "Beta-galactosidase (Bos taurus)",
    "Class": "Not fulfilled"
  },
  {
    "Chemical Smiles": "Cc1ccc(CNC2=N[C@H](CO)[C@H](O)[C@H](O)C2)cc1",
    "System Tested": "Beta-galactosidase (Bos taurus)",
    "Class": "Not fulfilled"
  }
]

Proceed to the following item.
Form field: pKi at least 10? Entry: OC[C@H]1N/C(=N\Cc2ccccc2)[C@H](O)[C@@H](O)[C@H]1O
Fulfilled

---

- System Tested: Beta-galactosidase (Bos taurus)
Can you tell me pKi for the items I'm about to list?
One number for each entry, as −log10 of the molar value.

Example results:
[
  {
    "Compound": "OC[C@H]1N/C(=N\\CC2CCCCC2)[C@H](O)[C@@H](O)[C@H]1O",
    "pKi": 10.10
  },
  {
    "Compound": "Cc1ccc(C/N=C2\\N[C@H](CO)[C@H](O)[C@H](O)[C@H]2O)cc1",
    "pKi": 10.15
  },
  {
    "Compound": "CC(C)(C)c1ccc(C/N=C2\\N[C@H](CO)[C@H](O)[C@H](O)[C@H]2O)cc1",
    "pKi": 9.96
  },
  {
    "Compound": "OC[C@H]1N/C(=N\\Cc2ccc(F)cc2)[C@H](O)[C@@H](O)[C@H]1O",
    "pKi": 9.72
  }
]

For the compound CCCCC(CC)CNC1=N[C@H](CO)[C@H](O)[C@H](O)[C@H]1O (stereo not given in full) , report pKi.
9.74
